target entity: GST-tagged recombinant full-length human Pim-2 (Homo sapiens, UniProt Q9P1W9)
Construct: GST-tagged recombinant full-length human Pim-2; GST
Sequence (Q9P1W9 whole entry): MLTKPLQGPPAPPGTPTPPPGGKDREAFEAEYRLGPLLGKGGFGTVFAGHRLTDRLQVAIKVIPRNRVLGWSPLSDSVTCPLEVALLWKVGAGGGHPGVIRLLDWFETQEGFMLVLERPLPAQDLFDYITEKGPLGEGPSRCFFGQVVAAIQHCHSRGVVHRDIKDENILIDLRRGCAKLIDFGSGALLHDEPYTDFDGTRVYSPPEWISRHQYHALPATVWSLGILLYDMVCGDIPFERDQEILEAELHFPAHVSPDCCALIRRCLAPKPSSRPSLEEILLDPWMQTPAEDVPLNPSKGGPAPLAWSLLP
assay notes: PIM-2 Assay (as Example A)
test context: averaged IC50; 4 μM ATP, 1.0 μM PIM2tide, 1.5 nM Pim-2
pIC50: −log10 of the molar value. Where a name gives a salt, the structure may show the parent alone.

>  <compound>
COCc1cccc2ccc(-c3nnc4ccc([C@@H](N5CC[C@H](N)C5)C(F)(F)F)cn34)nc12 [Example 185, dihydrochloride]

>  <bound type>
<

>  <pIC50>
7.00

$$$$
>  <compound>
CCOc1cc2nc(-c3nnc4ccc([C@H](C)N5CC[C@H](N)C5)cn34)ccc2cc1F [Example 310, trihydrochloride]

>  <bound type>
=

>  <pIC50>
6.38

$$$$
>  <compound>
COc1cccc2ccc(-c3nnc4ccc([C@H](N5CC[C@](C)(N)C5)C(F)(F)F)cn34)nc12 [Example 217, dihydrochloride]

>  <bound type>
=

>  <pIC50>
7.40

$$$$
>  <compound>
CC(C)(C)C(=O)Nc1ccc2ccc(-c3nnc4ccc([C@@H](N5CC[C@H](N)C5)C(F)(F)F)cn34)nc2c1

>  <bound type>
<

>  <pIC50>
7.00

$$$$
>  <compound>
COc1ccc2ccc(-c3nnc4ccc([C@H](N5CC[C@](C)(N)C5)C(F)(F)F)cn34)nc2c1

>  <bound type>
=

>  <pIC50>
6.77

$$$$
>  <compound>
CCC1(N)CCN([C@H](c2ccc3nnc(-c4ccc5cccc(OC)c5n4)n3c2)C(F)(F)F)C1 (single isomer, unassigned; diastereomer 1) [Example 242, dihydrochloride]

>  <bound type>
<

>  <pIC50>
6.00

$$$$
>  <compound>
Cc1cc(-c2cc3nc(-c4nnc5ccc([C@@H](N6CC[C@H](N)C6)C(F)(F)F)cn45)ccc3cc2F)n(C)n1 [Example 204, dihydrochloride]

>  <bound type>
<

>  <pIC50>
6.00

$$$$
>  <compound>
FC(F)(F)[C@@H](c1ccc2nnc(-c3ccc4ccc(Br)cc4n3)n2c1)N1C[C@@H]2C[C@H]1CN2 [Example 68, dihydrochloride]

>  <bound type>
<

>  <pIC50>
7.00

$$$$
>  <compound>
COc1cc2nc(-c3nnc4ccc([C@@H](N5C[C@@H](N)[C@@H](O)C5)C(F)(F)F)cn34)ccc2cc1F [Example 131, dihydrochloride]

>  <bound type>
=

>  <pIC50>
6.10

$$$$
>  <compound>
COCCc1ccc2ccc(-c3nnc4ccc([C@@H](N5CC[C@H](N)C5)C(F)(F)F)cn34)nc2c1 [Example 269, dihydrochloride]

>  <bound type>
=

>  <pIC50>
6.38

$$$$
>  <compound>
COCC(C)Oc1cccc2ccc(-c3nnc4ccc([C@@H](N5CC[C@H](N)C5)C(F)(F)F)cn34)nc12 (stereo partly shown) [Example 118, hydrochloride]

>  <bound type>
=

>  <pIC50>
7.14

$$$$
>  <compound>
CC(C)c1cccc2ccc(-c3nnc4ccc([C@@H](N5CC[C@H](N)C5)C(F)(F)F)cn34)nc12 [Example 41, dihydrochloride]

>  <bound type>
=

>  <pIC50>
7.80

$$$$
>  <compound>
N[C@H]1CCN([C@H](c2ccc3nnc(-c4ccc5cc(F)c(OCCO)cc5n4)n3c2)C(F)(F)F)C1 [Example 123, hydrochloride]

>  <bound type>
=

>  <pIC50>
7.14

$$$$
